Origin of values: patent US8658661B2

Quick reference: IC50 of the listed items.
# system.name: recombinant human FLAP protein (Homo sapiens)
# Construct: made in house; host or cells: Sf9 insect cells (100,000×g membrane pellet used)
# Sequence (P20292 whole entry): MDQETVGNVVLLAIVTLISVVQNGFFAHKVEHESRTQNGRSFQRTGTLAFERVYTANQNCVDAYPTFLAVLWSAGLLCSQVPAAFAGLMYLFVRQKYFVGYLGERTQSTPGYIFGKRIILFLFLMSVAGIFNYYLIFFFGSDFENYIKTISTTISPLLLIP
# assay.comment: FLAP binding assay (SPA, displacement of [125I]L-691,831)
# condition.label: membranes of sf9 cells expressing recombinant human FLAP; [125I]L-691,831 probe; read-out: FLAP binding IC50
measurement.name: IC50

molecule="CCC(C)(c1ccc(-c2cnc(N)nc2)cc1)c1noc(-c2ccc(C)nc2)n1 (stereo not shown)" system_name="recombinant human FLAP protein (Homo sapiens)" measurement_name=IC50 test_result="4.1 nM"
molecule="CC(C)C(C)(c1ccc(-c2cnc(N)nc2)cc1)c1noc(-c2nccs2)n1 (stereo not shown)" system_name="recombinant human FLAP protein (Homo sapiens)" measurement_name=IC50 test_result="4.4 nM"
molecule="CC(C)C(C)(c1ccc(-c2cnc(N)nc2)cc1)c1noc(NC2CCN(C)CC2)n1 (stereo not shown)" system_name="recombinant human FLAP protein (Homo sapiens)" measurement_name=IC50 test_result="89 nM"
molecule=C[C@@](c1ccc(-c2cnc(N)nc2)cc1)(c1noc(-c2cn[nH]c2)n1)C1CC1 system_name="recombinant human FLAP protein (Homo sapiens)" measurement_name=IC50 test_result="6.8 nM"
molecule=CC(C)(CO)Nc1cnc(-c2nc(C(C)(C)c3ccc(-c4cnc(N)nc4)cc3)no2)cn1 system_name="recombinant human FLAP protein (Homo sapiens)" measurement_name=IC50 test_result="17 nM"
molecule="CC(C)C(C)(c1ccc(-c2cnc(N)nc2)cc1)c1noc(C(=O)N2CCOCC2)n1 (stereo not shown)" system_name="recombinant human FLAP protein (Homo sapiens)" measurement_name=IC50 test_result="63 nM"
molecule=CC(C)[C@](C)(c1ccc(-c2cnc(N)nc2)cc1)c1noc(-c2cnn(CC(C)(C)O)c2)n1 system_name="recombinant human FLAP protein (Homo sapiens)" measurement_name=IC50 test_result="0.86 nM"
molecule=CN(C)C(=O)Cn1cc(-c2nc([C@](C)(c3ccc(-c4cnc5c(c4)OCCN5)cc3)C3CC3)no2)cn1 system_name="recombinant human FLAP protein (Homo sapiens)" measurement_name=IC50 test_result="15 nM"
molecule="CC(C)C(C)(c1ccc(-c2cnc(N)nc2)cc1)c1noc(-c2ccc(N)nc2)n1 (stereo not shown)" system_name="recombinant human FLAP protein (Homo sapiens)" measurement_name=IC50 test_result="2.3 nM"
molecule="CC(C)(O)CNc1cnc(-c2nc(C(C)(c3ccc(-c4cnc(N)nc4)cc3)C3CCC3)no2)cn1 (stereo not shown)" system_name="recombinant human FLAP protein (Homo sapiens)" measurement_name=IC50 test_result="3.2 nM"
molecule="CC(C)C(C)(c1ccc(-c2cnc(N)nc2)cc1)c1noc(C2(C)CCCC2)n1 (stereo not shown)" system_name="recombinant human FLAP protein (Homo sapiens)" measurement_name=IC50 test_result="31 nM"
molecule="CC(c1ccc(-c2cnc(N)nc2)cc1)(c1noc(-c2cn[nH]c2)n1)C1CC1 (stereo not shown)" system_name="recombinant human FLAP protein (Homo sapiens)" measurement_name=IC50 test_result="5.5 nM"
molecule=CN(C)C(=O)Cn1cc(-c2nc([C@@](C)(c3ccc(-c4ccc(N)nc4)cc3)C3CC3)no2)cn1 system_name="recombinant human FLAP protein (Homo sapiens)" measurement_name=IC50 test_result="1.1 nM"
molecule="CC(C)C(C)(c1ccc(-c2cnc(N)nc2)cc1)c1noc(-c2cnccn2)n1 (stereo not shown)" system_name="recombinant human FLAP protein (Homo sapiens)" measurement_name=IC50 test_result="2.8 nM"
molecule="CC(C)C(C)(c1ccc(-c2cnc(N)nc2)cc1)c1noc(N2CCC(CO)CC2)n1 (stereo not shown)" system_name="recombinant human FLAP protein (Homo sapiens)" measurement_name=IC50 test_result="8.2 nM"
molecule="COCCc1nc(C(C)(c2ccc(-c3cnc(N)nc3)cc2)C(C)C)no1 (stereo not shown)" system_name="recombinant human FLAP protein (Homo sapiens)" measurement_name=IC50 test_result="37 nM"
molecule="CC(c1ccc(-c2cnc(N)nc2)cc1)(c1noc(-c2cc[nH]n2)n1)C1CC1 (stereo not shown)" system_name="recombinant human FLAP protein (Homo sapiens)" measurement_name=IC50 test_result="6 nM"
molecule="CC(C)C(C)(c1ccc(-c2cnc(N)nc2)cc1)c1noc(-c2ccnnc2)n1 (stereo not shown)" system_name="recombinant human FLAP protein (Homo sapiens)" measurement_name=IC50 test_result="2.7 nM"
molecule=CC(C)(O)CNc1ccc(-c2nc(C(C)(C)c3ccc(-c4cnc(N)nc4)cc3)no2)cn1 system_name="recombinant human FLAP protein (Homo sapiens)" measurement_name=IC50 test_result="7.1 nM"
molecule=C[C@](c1ccc(-c2cnc(N)cn2)cc1)(c1noc(-c2cnc(N3CCNCC3)cn2)n1)C1CC1 system_name="recombinant human FLAP protein (Homo sapiens)" measurement_name=IC50 test_result="12 nM"
molecule=CC(C)Nc1ncc(-c2ccc([C@](C)(c3noc(-c4cnn(CC(=O)N(C)C)c4)n3)C3CC3)cc2)cn1 system_name="recombinant human FLAP protein (Homo sapiens)" measurement_name=IC50 test_result="76 nM"
molecule=CC(C)(O)Cn1cc(-c2nc(C(C)(C)c3ccc(-c4cnc(N)nc4)cc3)no2)cn1 system_name="recombinant human FLAP protein (Homo sapiens)" measurement_name=IC50 test_result="23 nM"
